assayTarget: c-Src (h) (human (printed as '(h)'), UniProt P12931 1-536, limits assumed)
experimentalProtocol: cell-based or functional assay
Parameter: Inhibitory Activity (%), cell-free in vitro kinase assay, peptide 50 µM. Scope: all listed entries.
Record the value in %, omitting the unit from your answer.

Reference set (3 entries):
>  <binder>
RAAKAARAAK [RAAKAARAAK peptide]

>  <unitAbbrev>
%

>  <number>
3

$$$$
>  <binder>
RAKAKAAAAR [RAKAKAAAAR peptide]

>  <unitAbbrev>
%

>  <number>
27

$$$$
>  <binder>
RSKAKNPLYR [RSKAKNPLYR peptide (β6 integrin derived)]

>  <unitAbbrev>
%

>  <number>
53

$$$$

Now look at this one.
## Task Provide one value: measured Inhibitory Activity (%), cell-free in vitro kinase assay, peptide 50 µM of RVKVKVVVVR [RVKVKVVVVR peptide]
## Result 43

Values compiled from patent US20150110744A1.
